# systemName: SARS-CoV-2 RBD extracellular domain expressed with a C-terminal human IgG1 (SARS-COV-2 RBD-hFc) (SARS-CoV-2)
# conditionSet: remark: other sources report otherwise
In this section, each of the binders is paired with its reported t½.

>  <binder>
mAb10998 (antibody, V domains shown) VH: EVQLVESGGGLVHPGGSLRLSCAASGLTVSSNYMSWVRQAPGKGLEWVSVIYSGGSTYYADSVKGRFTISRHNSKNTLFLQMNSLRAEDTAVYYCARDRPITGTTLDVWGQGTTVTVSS VL: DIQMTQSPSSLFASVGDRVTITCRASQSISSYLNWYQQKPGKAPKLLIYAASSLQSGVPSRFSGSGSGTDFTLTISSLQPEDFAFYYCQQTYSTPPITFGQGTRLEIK

>  <outputUnit>
h

>  <censoringQualifier>
=

>  <t½>
0.37

$$$$
>  <binder>
mAb11004 (antibody, V domains shown) VH: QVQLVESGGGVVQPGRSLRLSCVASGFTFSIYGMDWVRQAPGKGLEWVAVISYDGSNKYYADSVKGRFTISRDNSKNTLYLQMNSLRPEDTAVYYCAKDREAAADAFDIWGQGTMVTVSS VL: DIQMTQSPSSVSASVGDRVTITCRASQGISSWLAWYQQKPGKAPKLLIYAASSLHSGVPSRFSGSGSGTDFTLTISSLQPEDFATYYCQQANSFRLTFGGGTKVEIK

>  <outputUnit>
h

>  <censoringQualifier>
=

>  <t½>
2.9

$$$$
>  <binder>
mAb11006 (antibody, V domains shown) VH: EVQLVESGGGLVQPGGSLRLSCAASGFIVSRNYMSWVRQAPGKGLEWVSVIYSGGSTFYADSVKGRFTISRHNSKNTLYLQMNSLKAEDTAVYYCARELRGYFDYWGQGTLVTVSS VL: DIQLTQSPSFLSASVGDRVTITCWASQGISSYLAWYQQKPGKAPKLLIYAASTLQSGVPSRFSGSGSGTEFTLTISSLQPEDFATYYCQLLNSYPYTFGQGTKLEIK

>  <outputUnit>
h

>  <censoringQualifier>
>

>  <t½>
19.2

$$$$
>  <binder>
mAb11008 (antibody, V domains shown) VH: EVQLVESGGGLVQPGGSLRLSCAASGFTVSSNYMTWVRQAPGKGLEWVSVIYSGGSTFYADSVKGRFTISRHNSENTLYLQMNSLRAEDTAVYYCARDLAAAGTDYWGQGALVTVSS VL: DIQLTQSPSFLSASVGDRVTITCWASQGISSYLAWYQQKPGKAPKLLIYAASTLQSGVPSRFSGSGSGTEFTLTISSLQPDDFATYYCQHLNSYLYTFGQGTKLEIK

>  <outputUnit>
h

>  <censoringQualifier>
=

>  <t½>
1.67

$$$$
